# MEASURED ON: T1, DLG3_3, Q92796
# T1 sequence (Q92796 374-475, limits assumed, looked up): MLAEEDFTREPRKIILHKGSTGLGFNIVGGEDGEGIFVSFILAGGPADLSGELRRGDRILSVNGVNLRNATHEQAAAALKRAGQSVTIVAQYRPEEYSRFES
# ASSAY DETAILS: holdup assay
# Design: key: below the threshold = too weak to quantify, mostly under pKd 3.1 to 4
# MEASUREMENT CONTEXT: plain residues with an end cap or a label only (N-terminal biotin on a linker: ado-ado)
ASSAY READOUT: pKd

BINDER: TACCHSETVV [TGFA, P01135]
pKd: 3.85
--
BINDER: MLSKQSESAI [FLVCR1, Q9Y5Y0]
pKd: below the threshold
--
BINDER: SARSRLSSNL [HCN2, Q9UL51]
pKd: below the threshold
--
BINDER: PAPSSGKDYV [CLDN1, O95832]
pKd: below the threshold
--
BINDER: QHKTQLQTLI [BPIFA2, Q96DR5]
pKd: below the threshold

Prompt line: # query: pKd of entry PRISRSQSEL [CCDC134, Q9H6E4]
Response line: below the threshold

Prompt line: # query: pKd of entry FNSYSLTGYV [CLDN2, P57739]
Response line: below the threshold

Prompt line: # query: pKd of entry LKVPPEERLI [CRB2, Q5IJ48]
Response line: below the threshold

These data points were gathered from paper PMC9482650.
